Please provide measured selectivity ratio for the entries that follow.
assay: Selectivity index, ratio of IC50 for human BEAS-2B cells to IC50 for human HeLa cells; format: toxicity; details: BEAS-2B cells versus HeLa cells, read-out: Ratio IC50

Hi there! I need selectivity ratio for each item below, if you can.
1. O=C(CCc1ccccc1)Nc1ccc(-c2ccc3cc(O)ccc3c2)cc1
2. O=C(/C=C/c1ccccc1)Nc1ccc(-c2ccc3cc(O)ccc3c2)cc1
3. O=C(/C=C/c1ccccc1)Nc1ccc(/C=C/c2cc(O)cc(O)c2)cc1

["> 52.1", "> 28.1", "> 9.2"]

----------
assay: Selectivity index, ratio of IC50 for human BEAS-2B cells to IC50 for human HepG2 cells; assay type: toxicity; details: BEAS-2B cells versus HepG2 cells, read-out: Ratio IC50
Provide the reported selectivity ratio of each item.

# smiles-str, quantity-measured, measured-result
measured = [
    ("O=C(/C=C/c1ccccc1)Nc1ccc(/C=C/c2cc(O)cc(O)c2)cc1", "selectivity ratio", "> 9.2"),
    ("O=C(/C=C/c1ccccc1)Nc1ccc(-c2ccc3cc(O)ccc3c2)cc1", "selectivity ratio", "> 28.1"),
]

# input for lookup
So, O=C(CCc1ccccc1)Nc1ccc(-c2ccc3cc(O)ccc3c2)cc1 ? Its selectivity ratio was > 52.1

----------
Provide the recorded inhibition for the entries that follow.
target: UniProt P11388; assay: Inhibition of human topoisomerase 2-alpha assessed as reduction in relaxation of pBR322 DNA at 100 uM measured after 30 mins by agarose gel electrophoresis method relative to control
Answers are plain numbers, in %.

Previously resolved entries follow.
# smiles-str, tested-system, units-text, inhibition
rows = [
    ("Oc1cc(O)cc(/C=C/c2ccc(O)c(-c3ccoc3)c2)c1", "UniProt P11388", "%", 77.4),
    ("Oc1cc(O)cc(/C=C/c2ccc(O)c(-c3ccccc3)c2)c1", "UniProt P11388", "%", 87.2),
    ("O=C(CCc1ccccc1)Nc1ccc(CCc2cc(O)cc(O)c2)cc1", "UniProt P11388", "%", 9.1),
]

Go through the items and report each one's inhibition.
1. O=C(/C=C/c1ccc(/C=C/c2cc(O)cc(O)c2)cc1)N1CCCCC1
2. CNC(=O)/C=C/c1ccc(O)c(/C=C/c2cc(O)cc(O)c2)c1
3. Oc1cc(O)cc(/C=C/c2cc(-c3ccoc3)ccc2O)c1

1. 71.1
2. 63.5
3. 82.1

----------
target: DNA topoisomerase 2-alpha (Homo sapiens, UniProt P11388); experiment: Inhibition of human topoisomerase 2-alpha assessed as reduction in relaxation of pBR322 DNA at 25 uM measured after 30 mins by agarose gel electrophoresis method relative to control
Sequence (P11388 whole entry): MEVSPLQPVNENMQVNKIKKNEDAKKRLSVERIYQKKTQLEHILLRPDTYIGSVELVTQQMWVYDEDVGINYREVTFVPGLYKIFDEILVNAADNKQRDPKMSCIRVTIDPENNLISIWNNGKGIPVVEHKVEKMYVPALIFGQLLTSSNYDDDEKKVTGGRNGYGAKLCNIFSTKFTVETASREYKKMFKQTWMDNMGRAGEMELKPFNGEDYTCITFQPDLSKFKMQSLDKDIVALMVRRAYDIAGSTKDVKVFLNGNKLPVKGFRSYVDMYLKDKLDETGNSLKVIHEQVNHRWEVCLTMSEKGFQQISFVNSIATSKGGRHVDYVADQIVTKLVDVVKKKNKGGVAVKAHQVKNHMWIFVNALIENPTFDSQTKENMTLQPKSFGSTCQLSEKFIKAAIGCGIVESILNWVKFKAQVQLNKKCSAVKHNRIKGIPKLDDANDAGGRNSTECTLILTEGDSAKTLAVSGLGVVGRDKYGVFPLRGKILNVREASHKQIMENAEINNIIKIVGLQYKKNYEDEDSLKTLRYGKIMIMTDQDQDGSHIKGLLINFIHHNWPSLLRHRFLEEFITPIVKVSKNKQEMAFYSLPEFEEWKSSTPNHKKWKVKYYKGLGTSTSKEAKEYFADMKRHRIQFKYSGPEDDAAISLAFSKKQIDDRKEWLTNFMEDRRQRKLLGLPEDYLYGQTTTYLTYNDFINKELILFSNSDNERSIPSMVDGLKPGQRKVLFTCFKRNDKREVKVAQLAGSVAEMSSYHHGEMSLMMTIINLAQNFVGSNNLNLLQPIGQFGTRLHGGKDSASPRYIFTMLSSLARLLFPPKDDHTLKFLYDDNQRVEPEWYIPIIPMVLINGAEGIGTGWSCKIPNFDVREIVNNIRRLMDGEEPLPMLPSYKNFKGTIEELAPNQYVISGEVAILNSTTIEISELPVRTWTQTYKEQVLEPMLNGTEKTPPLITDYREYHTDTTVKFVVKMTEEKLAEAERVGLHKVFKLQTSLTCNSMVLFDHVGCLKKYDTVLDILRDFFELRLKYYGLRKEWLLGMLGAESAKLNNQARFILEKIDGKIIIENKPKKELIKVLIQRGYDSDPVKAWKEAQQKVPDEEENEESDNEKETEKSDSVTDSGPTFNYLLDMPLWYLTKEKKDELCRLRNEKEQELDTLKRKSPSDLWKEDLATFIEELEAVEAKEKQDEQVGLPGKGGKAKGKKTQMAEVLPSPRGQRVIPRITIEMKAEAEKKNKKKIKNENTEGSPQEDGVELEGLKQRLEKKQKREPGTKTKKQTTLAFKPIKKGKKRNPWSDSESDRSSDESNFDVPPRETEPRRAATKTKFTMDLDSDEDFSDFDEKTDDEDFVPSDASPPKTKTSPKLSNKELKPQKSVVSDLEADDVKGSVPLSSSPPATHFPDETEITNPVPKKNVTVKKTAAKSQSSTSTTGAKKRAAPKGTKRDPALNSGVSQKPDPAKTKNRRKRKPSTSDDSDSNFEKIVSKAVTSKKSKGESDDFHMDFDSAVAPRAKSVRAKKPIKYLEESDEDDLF
Provide the recorded inhibition for the entries that follow.
One number for each entry, in %.

# smiles-str, inhibition [%]
data = [
    ("Oc1cc(O)cc(/C=C/c2ccc(O)c(-c3ccccc3)c2)c1", 10.5),
]

I need inhibition for every entry listed below, if you could help.
1. CCCNC(=O)/C=C/c1cc(/C=C/c2cc(O)cc(O)c2)ccc1O
2. C/C=C/C(=O)Nc1cc(/C=C/c2cc(O)cc(O)c2)ccc1O
3. O=C(/C=C/c1ccccc1)Nc1ccc(-c2ccc3cc(O)ccc3c2)cc1
4. Oc1cc(O)cc(/C=C/c2ccc(-c3ccoc3)cc2)c1
5. Oc1cc(O)cc(/C=C/c2cc(-c3ccsc3)ccc2O)c1

1.7
0.2
86.2
30.4
75.2

----------
assay: Antiproliferative activity against human HL7702 cells incubated for 72 hrs by CCK8 assay; type: toxicity, cell-based; conditions: HL7702 (L02) cells
quantity-measured: IC50 at 72 h

Record excerpt, results attached:
# compound, IC50 at 72 h
rows = [
    ("O=C(/C=C/c1ccccc1)Nc1ccc(/C=C/c2cc(O)cc(O)c2)cc1", "37.8 µM"),
    ("O=C(/C=C/c1ccccc1)Nc1ccc(-c2ccc3cc(O)ccc3c2)cc1", "> 50 µM"),
    ("O=C(CCc1ccccc1)Nc1ccc(-c2ccc3cc(O)ccc3c2)cc1", "16.7 µM"),
]

Value of IC50 at 72 h reported for the compound COc1cc([C@@H]2c3cc4c(cc3[C@@H](O[C@@H]3O[C@@H]5CO[C@@H](C)O[C@H]5[C@H](O)[C@H]3O)[C@H]3COC(=O)[C@H]23)OCO4)cc(OC)c1O [ETOPOSIDE] is 39.1 µM

----------
biological target: UniProt:P11388; experiment: Inhibition of human topoisomerase 2-alpha assessed as reduction in relaxation of pBR322 DNA at 100 uM measured after 30 mins by agarose gel electrophoresis method relative to control
quantity-measured: inhibition (%)
Answers are plain numbers, in %.

Example entries and their recorded answers appear below.
# smiles-str, inhibition [%]
measured = [
    ("COc1ccc2cc(-c3ccc(NC(=O)/C=C/c4ccccc4)cc3)ccc2c1", 0.1),
    ("COc1cc(CCc2ccc(NC(=O)/C=C/c3ccccc3)cc2)cc(OC)c1", 0.04),
    ("O=C(/C=C/c1ccccc1)Nc1ccc(O)c(/C=C/c2cc(O)cc(O)c2)c1", 98.1),
    ("COc1ccc2nc(-c3ccc(NC(=O)/C=C/c4ccccc4)cc3)sc2c1", 36.7),
    ("NC(=O)/C=C/c1ccc(O)c(/C=C/c2cc(O)cc(O)c2)c1", 76.6),
]

Working through the 8 compounds below one at a time, give inhibition for each.
1. Oc1cc(O)cc(/C=C/c2ccc(-c3ccoc3)cc2)c1
2. COc1cc(/C=C/c2ccc(NC(=O)/C=C/c3ccccc3)cc2)cc(OC)c1
3. O=C(/C=C/c1ccccc1)Nc1ccc(CCc2cc(O)cc(O)c2)cc1
4. CNC(=O)/C=C/c1ccc(/C=C/c2cc(O)cc(O)c2)cc1
5. O=[N+]([O-])c1cccc(-c2ccc(/C=C/c3cc(O)cc(O)c3)cc2)c1
6. Oc1cc(O)cc(/C=C/c2cc(-c3ccsc3)ccc2O)c1
7. O=C(/C=C/c1ccccc1)Nc1ccc(-c2ccc3cc(O)ccc3c2)cc1
8. C/C=C/C(=O)Nc1ccc(/C=C/c2cc(O)cc(O)c2)cc1

1: 66.1; 2: 15.3; 3: 11.3; 4: 29.7; 5: 68.7; 6: 88.4; 7: 81; 8: 12.5

Required: inhibition, one value per compound below.
1. Oc1cc(O)cc(/C=C/c2ccc(O)c(-c3cccc(O)c3)c2)c1
2. COc1cc(/C=C/c2ccc(NC(=O)CCc3ccccc3)cc2)cc(OC)c1
3. COc1ccc2nc(-c3ccc(NC(=O)CCc4ccccc4)cc3)sc2c1
4. COc1cc(OC)cc(C(=O)Nc2ccc(NC(=O)/C=C/c3ccccc3)cc2)c1

1. 72.1
2. 0.2
3. 0
4. 2.1

Field: inhibition. Fill in for each record below.
1. Oc1cc(O)cc(/C=C/c2ccc(-c3cccc(O)c3)cc2)c1
2. O=C(/C=C/c1ccccc1)Nc1cc(/C=C/c2cc(O)cc(O)c2)ccc1O
3. COc1ccc2cc(-c3ccc(NC(=O)CCc4ccccc4)cc3)cnc2c1
4. COc1ccc2cc(-c3ccc(NC(=O)CCc4ccccc4)cc3)ccc2c1
5. CCCNC(=O)/C=C/c1ccc(/C=C/c2cc(O)cc(O)c2)cc1

[82.9, 94.5, 19.7, 0, 65.9]

Would you mind listing inhibition for each of the following compounds?
1. O=C(/C=C/c1cc(/C=C/c2cc(O)cc(O)c2)ccc1O)N1CCCCC1
2. CCCNC(=O)/C=C/c1cc(/C=C/c2cc(O)cc(O)c2)ccc1O
3. O=C(CCc1ccccc1)Nc1ccc(NC(=O)c2cc(O)cc(O)c2)cc1
4. O=C(/C=C/c1ccccc1)Nc1ccc(-c2nc3ccc(O)cc3s2)cc1
5. O=C(CCc1ccccc1)Nc1ccc(-c2cnc3cc(O)ccc3c2)cc1
6. CN(C)C(=O)/C=C/c1ccc(/C=C/c2cc(O)cc(O)c2)cc1

1. 84.5
2. 59.6
3. 54.5
4. 87.4
5. 9.7
6. 47.8

----------
target: DNA topoisomerase 2-alpha (Homo sapiens, UniProt P11388); test: Inhibition of human topoisomerase 2-alpha assessed as reduction in relaxation of pBR322 DNA at 100 uM measured after 30 mins by agarose gel electrophoresis method relative to control
Use Criterion met when the recorded inhibition is no lower than 4%; use Criterion not met when it is lower.

Illustrative cases are given below, each with its answer.
# smiles-str, qualitative-label
data = [
    ("COc1cc(CCc2ccc(NC(=O)CCc3ccccc3)cc2)cc(OC)c1", "Criterion not met"),
    ("O=C(/C=C/c1ccc(O)c(/C=C/c2cc(O)cc(O)c2)c1)N1CCCCC1", "Criterion met"),
    ("COc1ccc2cc(-c3ccc(NC(=O)/C=C/c4ccccc4)cc3)cnc2c1", "Criterion not met"),
]

# check: inhibition of Oc1ccc(-c2cc(/C=C/c3cc(O)cc(O)c3)ccc2O)cc1 is greater than or equal to 4%
Criterion met

Identify whether the reported inhibition of the following compound is 4% or greater: COc1cc(OC)cc(C(=O)Nc2ccc(NC(=O)CCc3ccccc3)cc2)c1
Criterion not met
